assayNotes: Half life in rat at 10 mg/kg, po
Type: ADME, organism-based
testSettings: in vivo
quantityName: half-life (h)
Answers are plain numbers, in h.

molecule=[2H]c1c([2H])c([2H])c(C2=C(c3ccc(S(C)(=O)=O)cc3)COC2=O)c([2H])c1[2H] quantityname=half-life measvalue=4.29

## Input Specify half-life for CS(=O)(=O)c1ccc(C2=C(c3ccccc3)C(=O)OC2)cc1 [ROFECOXIB] and stop.
## Output 4.18

---

assayNotes: Cmax in rat at 10 mg/kg, po
Type: ADME, organism-based
Set-up: dose 10 mg/kg, route oral
testSettings: in vivo
Assignment: determine reported Cmax for the given compounds.
Numbers only, in ng/mL.

substancesmiles=CS(=O)(=O)c1ccc(C2=C(c3ccccc3)C(=O)OC2)cc1 quantityname=Cmax u=ng/mL measvalue=2420

Now look at this entry.
## Input Specify Cmax for [2H]c1c([2H])c([2H])c(C2=C(c3ccc(S(C)(=O)=O)cc3)COC2=O)c([2H])c1[2H] and stop.
## Output 4180
